STUDY_TARGET: Integrin alpha-4/beta-7 (Homo sapiens, UniProt P13612+P26010)
Sequence (P13612 whole entry): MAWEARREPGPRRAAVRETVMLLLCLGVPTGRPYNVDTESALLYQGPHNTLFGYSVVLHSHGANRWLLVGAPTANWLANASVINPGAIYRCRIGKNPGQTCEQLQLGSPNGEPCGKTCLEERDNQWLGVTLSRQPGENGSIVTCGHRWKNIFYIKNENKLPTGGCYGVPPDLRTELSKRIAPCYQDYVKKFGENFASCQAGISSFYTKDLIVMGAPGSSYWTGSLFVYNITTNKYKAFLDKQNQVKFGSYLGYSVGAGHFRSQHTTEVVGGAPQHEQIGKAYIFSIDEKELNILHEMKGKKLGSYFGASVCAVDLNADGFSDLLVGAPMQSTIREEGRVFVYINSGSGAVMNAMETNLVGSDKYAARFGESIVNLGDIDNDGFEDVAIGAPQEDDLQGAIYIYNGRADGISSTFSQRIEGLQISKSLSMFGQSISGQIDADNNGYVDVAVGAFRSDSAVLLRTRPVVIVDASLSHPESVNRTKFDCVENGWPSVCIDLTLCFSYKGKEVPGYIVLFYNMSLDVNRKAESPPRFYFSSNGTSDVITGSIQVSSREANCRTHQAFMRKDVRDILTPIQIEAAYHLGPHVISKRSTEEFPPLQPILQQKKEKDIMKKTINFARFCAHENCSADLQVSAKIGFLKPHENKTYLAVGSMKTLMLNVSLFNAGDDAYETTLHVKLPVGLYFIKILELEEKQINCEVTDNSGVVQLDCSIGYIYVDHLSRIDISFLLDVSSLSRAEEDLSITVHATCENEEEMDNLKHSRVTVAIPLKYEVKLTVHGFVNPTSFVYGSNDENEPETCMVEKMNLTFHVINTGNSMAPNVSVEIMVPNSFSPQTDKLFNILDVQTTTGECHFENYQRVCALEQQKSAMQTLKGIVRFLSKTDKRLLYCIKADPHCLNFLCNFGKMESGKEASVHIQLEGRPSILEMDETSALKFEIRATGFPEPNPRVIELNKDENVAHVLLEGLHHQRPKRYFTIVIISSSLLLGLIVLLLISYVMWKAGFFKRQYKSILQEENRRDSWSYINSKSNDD
Sequence (P26010 whole entry): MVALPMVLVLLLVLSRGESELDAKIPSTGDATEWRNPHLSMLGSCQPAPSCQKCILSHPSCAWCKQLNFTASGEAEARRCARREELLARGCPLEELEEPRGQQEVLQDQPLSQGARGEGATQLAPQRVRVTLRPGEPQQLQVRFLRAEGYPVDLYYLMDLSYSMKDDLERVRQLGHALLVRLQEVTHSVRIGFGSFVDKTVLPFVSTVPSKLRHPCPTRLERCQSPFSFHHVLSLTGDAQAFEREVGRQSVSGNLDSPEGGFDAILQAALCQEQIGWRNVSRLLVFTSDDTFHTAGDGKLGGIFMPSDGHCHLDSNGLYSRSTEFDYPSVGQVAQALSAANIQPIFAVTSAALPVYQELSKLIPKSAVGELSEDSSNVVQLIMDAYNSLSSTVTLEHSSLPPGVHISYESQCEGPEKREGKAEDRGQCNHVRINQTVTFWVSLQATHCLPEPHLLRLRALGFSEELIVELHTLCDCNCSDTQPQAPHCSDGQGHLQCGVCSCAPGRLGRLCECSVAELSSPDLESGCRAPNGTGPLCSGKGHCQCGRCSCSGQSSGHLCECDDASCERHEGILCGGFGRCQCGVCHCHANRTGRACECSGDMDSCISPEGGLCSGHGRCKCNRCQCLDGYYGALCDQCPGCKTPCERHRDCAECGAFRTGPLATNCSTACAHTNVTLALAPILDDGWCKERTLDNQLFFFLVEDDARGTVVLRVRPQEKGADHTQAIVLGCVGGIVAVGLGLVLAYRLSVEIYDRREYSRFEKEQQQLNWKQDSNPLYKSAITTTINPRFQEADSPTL
ASSAY_NOTES: Inhibition of α4β7 and α4β1 Integrins
RESULT_TYPE: IC50

Tell me reported IC50 for Cn1c(=O)c(-c2cccc3c(C[C@H](NC(=O)c4c(F)cc(NC5CCC(F)(F)C5)cc4F)C(=O)O)cccc23)c(C(F)(F)F)c2ccccc21 (some centres not stated) , tested with Integrin alpha-4/beta-7 (Homo sapiens, UniProt P13612+P26010).
> 0.1 µM

Tell me reported IC50 for Cn1ccc(C(F)(F)F)c(-c2nccc3c(C[C@H](NC(=O)c4c(F)cc(N(CC(F)(F)F)CC(F)(F)F)cc4F)C(=O)O)cccc23)c1=O , tested with Integrin alpha-4/beta-7 (Homo sapiens, UniProt P13612+P26010).
< 0.01 µM
